Catalogue of MIC50 values
test system: Trichophyton mentagrophytes; assay: Antifungal activity against Trichophyton mentagrophytes after 7 days by broth microdilution method; type: functional; conditions: 168 h

Please review the entries below; each comes with its answer.
- STRUCTURE: "CN(Cc1cccc2ccccc12)[C@@H](CF)c1ccc(C(C)(C)C)cc1"
  ASSAYED TARGET: "Trichophyton mentagrophytes"
  MEASURE: "MIC50"
  REPORTED MEASUREMENT: "> 32 µg/mL"
- STRUCTURE: "CC(C)(C)c1ccc([C@@H](CF)NCc2cccc3ccccc23)cc1"
  ASSAYED TARGET: "Trichophyton mentagrophytes"
  MEASURE: "MIC50"
  REPORTED MEASUREMENT: "> 32 µg/mL"
- STRUCTURE: "Cc1cc(C(C)(C)C)cc(C)c1CN(C)[C@H](C)c1cccc2ccccc12"
  ASSAYED TARGET: "Trichophyton mentagrophytes"
  MEASURE: "MIC50"
  REPORTED MEASUREMENT: "> 32 µg/mL"

Next item in the queue.
Request: Query (molecule): CN(Cc1cccc2ccccc12)[C@H](CF)c1ccc(C(C)(C)C)cc1 ; field requested: MIC50
Result: > 32 µg/mL

---

Catalogue of MIC50 values
system: Cryptococcus neoformans; test: Antifungal activity against Cryptococcus neoformans after 72 hrs by broth microdilution method; assay type: functional
Give the quantity in µg/mL, number only.

- STRUCTURE: "C[C@H](c1cccc2ccccc12)N(C)Cc1ccc(C(F)(F)F)cc1"
  MIC50 [µg/mL]: 0.5
- STRUCTURE: "C[C@H](c1cccc2ccccc12)N(C)Cc1ccc(F)cc1"
  MIC50 [µg/mL]: 4
- STRUCTURE: "C[C@H](c1cccc2ccccc12)N(C)Cc1ccc(OC(F)(F)F)cc1"
  MIC50 [µg/mL]: 2
- STRUCTURE: "Cc1ccc(CN(C)[C@H](C)c2cccc3ccccc23)cc1"
  MIC50 [µg/mL]: 0.5
- STRUCTURE: "C[C@H](c1cccc2ccccc12)N(C)Cc1ccccc1"
  MIC50 [µg/mL]: 16

Request: Query (molecule): C[C@H](c1cccc2ccccc12)N(C)Cc1ccc(Br)cc1 ; field requested: MIC50
Result: 0.5

Request: Query (molecule): CN(Cc1ccc(C(C)(C)C)cc1)Cc1cccc2ccccc12 ; field requested: MIC50
Result: 0.5

Request: Query (molecule): C[C@@H](c1ccc(C(C)(C)C)cc1)N(C)Cc1cccc2ccccc12 ; field requested: MIC50
Result: 2

---

Catalogue of MIC50 values
test system: Cryptococcus neoformans; assay: Antifungal activity against Cryptococcus neoformans after 72 hrs by broth microdilution method; format: functional

- STRUCTURE: "C[C@H](c1cccc2ccccc12)N(C)Cc1ccccc1Br"
  MIC50: "> 32 µg/mL"
- STRUCTURE: "CN(Cc1cccc2ccccc12)[C@@H](CF)c1ccc(C(C)(C)C)cc1"
  MIC50: "> 32 µg/mL"
- STRUCTURE: "C[C@H](c1cccc2ccccc12)N(C)Cc1ccccn1"
  MIC50: "> 32 µg/mL"
- STRUCTURE: "C[C@H](c1cccc2ccccc12)N(C)Cc1ccccc1C(F)(F)F"
  MIC50: "> 32 µg/mL"
- STRUCTURE: "C[C@H](c1cccc2ccccc12)N(C)Cc1ccc(-c2ccccc2)cc1"
  MIC50: "> 16 µg/mL"

Request: Query (molecule): CN(Cc1cccc2ccccc12)[C@H](CF)c1ccc(C(C)(C)C)cc1 ; field requested: MIC50
Result: > 32 µg/mL

Request: Query (molecule): C[C@H](c1cccc2ccccc12)N(C)Cc1ccccc1F ; field requested: MIC50
Result: > 32 µg/mL
